- assay-method-text: Clearance in dog at 3 mg/kg, iv
- Type: ADME, organism-based, Canis lupus familiaris
- Parameters: dose 3 mg/kg, route intravenous
- stated-conditions: in vivo

>  <smiles-notation>
COC(=O)c1c(Cc2ccc(C(=O)NCCO)cc2)c(=O)c2ccc(Cl)cc2n1-c1ccccc1

>  <unit-abbrev>
mL/min/kg

>  <clearance>
3.4

$$$$

###

- assay-method-text: Clearance in rat at 3 mg/kg, iv
- Assay type: ADME, organism-based
- Design: dose 3 mg/kg, route intravenous
- stated-conditions: in vivo
measurement-name: clearance (mL/min/kg)

>  <smiles-notation>
COC(=O)c1c(Cc2ccc(C(=O)NCCO)cc2)c(=O)c2ccc(Cl)cc2n1-c1ccccc1

>  <unit-abbrev>
mL/min/kg

>  <test-value>
25

$$$$

###

- assay-method-text: Oral bioavailability in rat at 3 mg/kg administered using labrasol as vehicle
- Assay type: ADME, organism-based
- stated-conditions: in vivo

>  <smiles-notation>
COC(=O)c1c(Cc2ccc(C(=O)NCCO)cc2)c(=O)c2ccc(Cl)cc2n1-c1ccccc1

>  <unit-abbrev>
%

>  <bioavailability>
43

$$$$

###

- assay-target: Mitogen-activated protein kinase 8 (Homo sapiens, UniProt P45983)
- Sequence (P45983 whole entry): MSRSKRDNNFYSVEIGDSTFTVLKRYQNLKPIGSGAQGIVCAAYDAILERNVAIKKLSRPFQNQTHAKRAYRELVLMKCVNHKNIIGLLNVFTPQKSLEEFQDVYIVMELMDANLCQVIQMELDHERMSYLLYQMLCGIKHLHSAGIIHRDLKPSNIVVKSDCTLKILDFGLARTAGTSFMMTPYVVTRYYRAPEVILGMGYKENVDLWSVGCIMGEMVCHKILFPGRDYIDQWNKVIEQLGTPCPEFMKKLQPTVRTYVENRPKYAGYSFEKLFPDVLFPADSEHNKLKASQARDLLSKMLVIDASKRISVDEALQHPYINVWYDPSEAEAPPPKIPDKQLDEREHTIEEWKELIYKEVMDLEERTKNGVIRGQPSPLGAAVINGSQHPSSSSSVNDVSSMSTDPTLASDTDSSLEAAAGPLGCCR
- assay-method-text: Inhibition of human JNK1 alpha1 using GST-tagged ATF2 as substrate and [gamma33P]ATP incubated for 10 mins prior to substrate addition measured after 30 mins by scintillation counting
pIC50: −log10 of the molar value.
Param threshold (7) applies to pIC50; output Fulfilled when value >= threshold, Not fulfilled when value < threshold.

>  <smiles-notation>
COC(=O)c1c(Cc2ccc(S(=O)(=O)N3CCNCC3)cc2)c(=O)c2ccc(C)nc2n1-c1ccccc1

>  <category-label>
Fulfilled

$$$$
>  <smiles-notation>
COC(=O)c1c(Cc2ccc(S(=O)(=O)N3CCNCC3)cc2)c(=O)c2ccc(F)cc2n1-c1ccccc1

>  <category-label>
Fulfilled

$$$$
>  <smiles-notation>
O=c1c2ccccc2n(-c2ccccc2)c(=O)n1Cc1ccccc1

>  <category-label>
Not fulfilled

$$$$
>  <smiles-notation>
CCn1c(=O)c2ccccc2n(-c2ccccc2)c1=O

>  <category-label>
Not fulfilled

$$$$
>  <smiles-notation>
COC(=O)c1c(CN2CC[C@H](S(C)(=O)=O)C2)c(=O)c2ccc(F)cc2n1-c1ccccc1

>  <category-label>
Fulfilled

$$$$

###

- assay-target: Death-associated protein kinase 1 (Homo sapiens, UniProt P53355)
- Sequence (P53355 whole entry): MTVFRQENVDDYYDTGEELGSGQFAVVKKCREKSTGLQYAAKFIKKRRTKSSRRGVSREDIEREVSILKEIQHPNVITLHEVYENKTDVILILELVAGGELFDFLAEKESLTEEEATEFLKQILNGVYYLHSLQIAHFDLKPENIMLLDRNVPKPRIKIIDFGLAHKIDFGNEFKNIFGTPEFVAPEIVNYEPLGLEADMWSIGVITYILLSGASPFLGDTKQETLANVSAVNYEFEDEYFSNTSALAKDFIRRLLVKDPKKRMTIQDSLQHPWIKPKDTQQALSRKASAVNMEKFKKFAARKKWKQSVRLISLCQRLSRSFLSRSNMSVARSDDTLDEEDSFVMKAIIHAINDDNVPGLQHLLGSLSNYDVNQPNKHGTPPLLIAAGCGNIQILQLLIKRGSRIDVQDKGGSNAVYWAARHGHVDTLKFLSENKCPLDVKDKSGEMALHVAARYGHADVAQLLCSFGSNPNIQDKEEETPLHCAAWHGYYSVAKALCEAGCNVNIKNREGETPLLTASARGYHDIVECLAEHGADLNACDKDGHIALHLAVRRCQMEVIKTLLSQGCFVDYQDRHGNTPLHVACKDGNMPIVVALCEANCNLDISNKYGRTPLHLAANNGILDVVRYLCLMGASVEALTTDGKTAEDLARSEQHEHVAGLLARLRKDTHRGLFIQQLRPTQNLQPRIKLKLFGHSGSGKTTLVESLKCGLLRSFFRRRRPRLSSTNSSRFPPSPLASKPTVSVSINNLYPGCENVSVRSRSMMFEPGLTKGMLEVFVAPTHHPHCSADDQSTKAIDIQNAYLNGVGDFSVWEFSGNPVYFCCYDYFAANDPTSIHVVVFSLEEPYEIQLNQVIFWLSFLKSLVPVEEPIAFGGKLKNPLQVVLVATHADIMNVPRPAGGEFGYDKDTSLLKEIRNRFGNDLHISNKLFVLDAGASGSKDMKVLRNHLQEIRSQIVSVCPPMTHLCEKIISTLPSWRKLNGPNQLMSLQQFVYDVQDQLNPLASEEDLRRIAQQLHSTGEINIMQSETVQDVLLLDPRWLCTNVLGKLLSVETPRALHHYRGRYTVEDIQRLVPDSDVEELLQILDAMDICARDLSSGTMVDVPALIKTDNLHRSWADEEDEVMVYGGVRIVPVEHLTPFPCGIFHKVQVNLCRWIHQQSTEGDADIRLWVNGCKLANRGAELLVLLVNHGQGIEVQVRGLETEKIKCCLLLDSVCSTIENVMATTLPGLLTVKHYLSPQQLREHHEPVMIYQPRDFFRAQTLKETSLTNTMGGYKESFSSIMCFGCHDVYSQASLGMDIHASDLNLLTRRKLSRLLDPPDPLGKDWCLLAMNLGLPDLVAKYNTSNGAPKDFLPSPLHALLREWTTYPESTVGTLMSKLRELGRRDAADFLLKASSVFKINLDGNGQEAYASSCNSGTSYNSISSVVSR

>  <smiles-notation>
COC(=O)c1c(Cc2ccc(C(=O)NCCO)cc2)c(=O)c2ccc(Cl)cc2n1-c1ccccc1

>  <assay-target>
Death-associated protein kinase 1 (Homo sapiens, UniProt P53355)

>  <Kd>
> 10 µM

$$$$

###

- assay-target: Mitogen-activated protein kinase 9 (Homo sapiens)
- Sequence (P45984 whole entry): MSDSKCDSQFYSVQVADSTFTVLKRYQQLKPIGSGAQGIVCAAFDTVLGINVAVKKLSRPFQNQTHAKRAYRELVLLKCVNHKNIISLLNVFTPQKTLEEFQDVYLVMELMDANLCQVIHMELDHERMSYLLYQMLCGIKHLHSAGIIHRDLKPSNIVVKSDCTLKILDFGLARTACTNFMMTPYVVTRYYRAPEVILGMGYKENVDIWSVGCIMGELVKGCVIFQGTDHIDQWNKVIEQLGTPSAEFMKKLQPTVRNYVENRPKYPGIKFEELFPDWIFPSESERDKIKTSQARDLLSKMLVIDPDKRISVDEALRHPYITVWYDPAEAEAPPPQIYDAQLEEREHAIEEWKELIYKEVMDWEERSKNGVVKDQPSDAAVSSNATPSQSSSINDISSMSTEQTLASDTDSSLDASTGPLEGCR
- assay-method-text: Inhibition of human JNK2 alpha2 using GST-tagged ATF2 as substrate and [gamma33P]ATP incubated for 10 mins prior to substrate addition measured after 30 mins by scintillation counting
pIC50: −log10 of the molar value.
Category key, based on recorded pIC50: low: < 6; intermediate: ≥ 6 and < 7; high: ≥ 7

>  <smiles-notation>
COC(=O)c1c(CN2CC[C@H](S(C)(=O)=O)C2)c(=O)c2ccc(F)cc2n1-c1ccccc1

>  <category-label>
intermediate

$$$$
>  <smiles-notation>
CCn1c(=O)c2ccccc2n(-c2ccccc2)c1=O

>  <category-label>
low

$$$$
>  <smiles-notation>
COC(=O)c1c(CN2CCC(S(C)(=O)=O)CC2)c(=O)c2ccc(C(F)(F)F)nc2n1-c1ccccc1

>  <category-label>
intermediate

$$$$
>  <smiles-notation>
COC(=O)c1c(Cc2ccc(C(=O)NCCO)cc2)c(=O)c2ccc(C(F)(F)F)nc2n1-c1ccccc1

>  <category-label>
intermediate

$$$$
>  <smiles-notation>
O=c1c2ccccc2n(-c2ccccc2)c(=O)n1Cc1ccccc1

>  <category-label>
low

$$$$
>  <smiles-notation>
COC(=O)c1c(CN2CCN(S(C)(=O)=O)CC2)c(=O)c2ccc(F)cc2n1-c1ccccc1

>  <category-label>
intermediate

$$$$
>  <smiles-notation>
COC(=O)c1c(CN2CCC(S(C)(=O)=O)CC2)c(=O)c2ccc(C)nc2n1-c1ccccc1

>  <category-label>
intermediate

$$$$
>  <smiles-notation>
COC(=O)c1c(Cc2ccc(C(=O)NCCO)cc2)c(=O)c2ccc(Cl)cc2n1-c1ccccc1

>  <category-label>
intermediate

$$$$
>  <smiles-notation>
COC(=O)c1c(Cc2ccc(S(=O)(=O)N3CCNCC3)cc2)c(=O)c2ccc(C)nc2n1-c1ccccc1

>  <category-label>
high

$$$$
>  <smiles-notation>
COC(=O)c1c(Cc2ccc(S(C)(=O)=O)cc2)c(=O)c2ccc(C)nc2n1-c1cccc(N)c1

>  <category-label>
high

$$$$
>  <smiles-notation>
O=c1c2ccc(Cl)cc2n(-c2ccccc2)c(=O)n1Cc1ccccc1

>  <category-label>
low

$$$$
>  <smiles-notation>
COC(=O)c1c(Cc2ccc(S(=O)(=O)CCO)cc2)c(=O)c2ccc(F)cc2n1-c1ccccc1

>  <category-label>
intermediate

$$$$

###

- assay-target: Mitogen-activated protein kinase 8 (Homo sapiens, UniProt P45983)
- assay-method-text: Inhibition of human JNK1 alpha1 using GST-tagged ATF2 as substrate and [gamma33P]ATP incubated for 10 mins prior to substrate addition measured after 30 mins by scintillation counting
pIC50: −log10 of the molar value.

>  <smiles-notation>
COC(=O)c1c(Cc2ccccc2)c(=O)c2ccc(Cl)cc2n1-c1ccccc1

>  <pIC50>
6.43

$$$$
>  <smiles-notation>
COC(=O)c1c(CN2CCOCC2)c(=O)c2ccc(F)cc2n1-c1ccccc1

>  <pIC50>
6.94

$$$$
>  <smiles-notation>
COC(=O)c1c(Cc2ccc(S(=O)(=O)CCO)cc2)c(=O)c2ccc(F)cc2n1-c1ccccc1

>  <pIC50>
7.24

$$$$

###

- assay-target: Mitogen-activated protein kinase 8 (Homo sapiens)
- assay-method-text: Inhibition of human JNK1 alpha1 using GST-tagged ATF2 as substrate and [gamma33P]ATP incubated for 10 mins prior to substrate addition measured after 30 mins by scintillation counting
measurement-name: IC50 (nM)

>  <smiles-notation>
COC(=O)c1c(Cc2ccc(S(C)(=O)=O)cc2)c(=O)c2ccc(C(F)(F)F)nc2n1-c1ccccc1

>  <assay-target>
Mitogen-activated protein kinase 8 (Homo sapiens)

>  <test-value>
82

$$$$
>  <smiles-notation>
COC(=O)c1c(Cc2ccc(C(=O)NCCO)cc2)c(=O)c2ccc(C(F)(F)F)nc2n1-c1ccccc1

>  <assay-target>
Mitogen-activated protein kinase 8 (Homo sapiens)

>  <test-value>
80

$$$$
>  <smiles-notation>
COC(=O)c1c(CN2CC[C@@H](S(C)(=O)=O)C2)c(=O)c2ccc(F)cc2n1-c1ccccc1

>  <assay-target>
Mitogen-activated protein kinase 8 (Homo sapiens)

>  <test-value>
130

$$$$
>  <smiles-notation>
COC(=O)c1c(CN2CCN(S(C)(=O)=O)CC2)c(=O)c2ccc(F)cc2n1-c1ccccc1

>  <assay-target>
Mitogen-activated protein kinase 8 (Homo sapiens)

>  <test-value>
65

$$$$

###

- assay-target: Mitogen-activated protein kinase 9 (Homo sapiens)
- assay-method-text: Inhibition of human JNK2 alpha2 using GST-tagged ATF2 as substrate and [gamma33P]ATP incubated for 10 mins prior to substrate addition measured after 30 mins by scintillation counting
measurement-name: log10 of IC50 (log10 of the value in µM)

>  <smiles-notation>
COC(=O)c1c(CN2CC[C@@H](S(C)(=O)=O)C2)c(=O)c2ccc(F)cc2n1-c1ccccc1

>  <log10 of IC50>
0.12

$$$$
>  <smiles-notation>
COC(=O)c1c(Cc2ccc(C(=O)NCCO)cc2)c(=O)c2ccc(C)nc2n1-c1ccccc1

>  <log10 of IC50>
-1.19

$$$$
>  <smiles-notation>
COC(=O)c1c(CN2CCC(S(C)(=O)=O)CC2)c(=O)c2ccc(F)cc2n1-c1ccccc1

>  <log10 of IC50>
-0.85

$$$$
>  <smiles-notation>
CCNC(=O)c1ccc(Cc2c(C(=O)OC)n(-c3ccccc3)c3nc(C)ccc3c2=O)cc1

>  <log10 of IC50>
-1.06

$$$$
>  <smiles-notation>
COC(=O)c1c(Cc2ccccc2)c(=O)c2ccc(Cl)cc2n1-c1ccccc1

>  <log10 of IC50>
-0.02

$$$$
>  <smiles-notation>
CCNC(=O)c1ccc(Cc2c(C(=O)OC)n(-c3ccccc3)c3cc(Cl)ccc3c2=O)cc1

>  <log10 of IC50>
-1.03

$$$$
>  <smiles-notation>
COC(=O)c1c(CN2CCOCC2)c(=O)c2ccc(F)cc2n1-c1ccccc1

>  <log10 of IC50>
-0.05

$$$$
>  <smiles-notation>
COC(=O)c1c(Cc2ccc(S(=O)(=O)N3CCNCC3)cc2)c(=O)c2ccc(F)cc2n1-c1ccccc1

>  <log10 of IC50>
-1.15

$$$$
